Measured activation at […] by item
System: Vaco503 reporter cell line expressing a 15-PGDH luciferase fusion construct
TEST_PROTOCOL: 15-PGDH-luciferase fusion gene reporter induction, Vaco503 (V503) cell line
Assay type: cell-based
ASSAY_SETUP: read-out: V503 reporter activity ([…]), Table 17; […]; read-out: V503 reporter activity (2.5 μM)
Numeric answer only, unit % assumed.

Consider the following illustrative entries.
{"COMPOUND": "COc1ccc(N(CC(=O)Nc2ccccc2Br)S(=O)(=O)c2ccccc2[N+](=O)[O-])c(OC)c1 [compound 1002065]", "SYSTEM_UNDER_TEST": "Vaco503 reporter cell line expressing a 15-PGDH luciferase fusion construct", "QUANTITY_UNIT": "%", "activation at […]": 38.1}
{"COMPOUND": "COc1ccc(S(=O)(=O)N(CC(=O)Nc2cccc(Br)c2)c2cc(Cl)ccc2OC)cc1OC [compound 771130]", "SYSTEM_UNDER_TEST": "Vaco503 reporter cell line expressing a 15-PGDH luciferase fusion construct", "QUANTITY_UNIT": "%", "activation at […]": -10.2}
{"COMPOUND": "COc1ccc(S(=O)(=O)N(CC(=O)Nc2ccccc2Br)c2cc(Cl)ccc2OC)cc1OC [compound 771081]", "SYSTEM_UNDER_TEST": "Vaco503 reporter cell line expressing a 15-PGDH luciferase fusion construct", "QUANTITY_UNIT": "%", "activation at […]": 31.9}
{"COMPOUND": "COc1ccc(S(=O)(=O)N(CC(=O)Nc2cccc(N(C)S(C)(=O)=O)c2)c2cc(Cl)ccc2OC)cc1OC [compound 924787]", "SYSTEM_UNDER_TEST": "Vaco503 reporter cell line expressing a 15-PGDH luciferase fusion construct", "QUANTITY_UNIT": "%", "activation at […]": 21.9}
{"COMPOUND": "COc1ccc(S(=O)(=O)N(CC(=O)Nc2ccc(Br)cc2)c2cc(Cl)ccc2OC)cc1OC [compound 771432]", "SYSTEM_UNDER_TEST": "Vaco503 reporter cell line expressing a 15-PGDH luciferase fusion construct", "QUANTITY_UNIT": "%", "activation at […]": 33.7}

Below: the item to evaluate.
Q. Notebook entry, Vaco503 reporter cell line expressing a 15-PGDH luciferase fusion construct assay: activation at […] of COc1ccc(N(CC(=O)Nc2ccccc2Br)S(=O)(=O)c2ccc(NC(C)=O)cc2)cc1 [compound 771064] = ?
A. -13.8
